test: AUClast in mouse at 1 mg/kg, iv measured upto 24 hrs LC-MS/MS analysis; settings: in vivo
Attribute: AUC(0-t) at 24 h
I only need the number, in ng·h/mL, no unit after it.

// worked examples, AUC(0-t) at 24 h included
Molecule | Quantity unit | AUC(0-t) at 24 h
O=[N+]([O-])c1cn2c(n1)OC(COc1ncc(Cl)cn1)CC2 (stereo unspecified) | ng·h/mL | 2070
CC1(COc2ccc(C(F)(F)F)nc2)CCn2cc([N+](=O)[O-])nc2O1 (stereo unspecified) | ng·h/mL | 4000
CC1(COc2ccc(Cl)cn2)CCn2cc([N+](=O)[O-])nc2O1 (stereo unspecified) | ng·h/mL | 2010
C[C@]1(COc2ccc(C(F)(F)F)nc2)CCn2cc([N+](=O)[O-])nc2O1 | ng·h/mL | 2520
O=[N+]([O-])c1cn2c(n1)OC(COc1ccc(C(F)(F)F)nc1)CC2 (stereo unspecified) | ng·h/mL | 3100

// switching to the query molecule
What value of AUC(0-t) at 24 h has been recorded for this entry: C[C@@]1(COc2ccc(C(F)(F)F)nc2)CCn2cc([N+](=O)[O-])nc2O1 2760
